// molecules with IC50 on IRAK4 (Homo sapiens (Human)), multi-source literature

Ask | Consider the molecule `CC(C)(O)[C@H](F)CNC(=O)c1cnc(-c2ccc3cc(C#N)cnn23)cc1N[C@H]1CC[C@H](n2cnnn2)CC1` and give its measured IC50.
Reply | < 1 nM

Ask | And what about the molecule `O=C(CCc1cn(-c2cccc(Cl)c2)c(NC(=O)c2cccc(-c3cn[nH]c3)c2)n1)Nc1ccccc1` ?
Reply | < 50 nM

Ask | And what about the molecule `Cc1cccc(-n2ncc3ccc(-c4cccc(CC#N)n4)cc32)n1` ?
Reply | 100 to 1000 nM

Ask | And what about the molecule `CC1(C)OC(=O)c2ccc(Nc3ncc(C(=O)NNC(=O)c4cccnc4)c(N[C@H](CO)c4ccccc4)n3)cc21` ?
Reply | 250 to 1000 nM

Ask | And what about the molecule CC(N)c1cccc(-c2cc(CO)c3cnn(-c4cccc(C(F)(F)F)n4)c3c2)n1 (stereo not drawn) ?
Reply | < 100 nM

Ask | And what about the molecule `Cc1cc(Nc2nc(O[C@H]3CC[C@H](N4CCCCC4)CC3)c3sccc3n2)sn1` ?
Reply | ≤ 100 nM

###

// molecules with pIC50 on IRAK4 (Homo sapiens (Human), UniProt Q9NWZ3), multi-source literature
pIC50: −log10 of the molar value.

Ask | Consider the molecule `Cn1cc(-c2cccc(-c3ncc(-c4cnn(C)c4)c(NCC4CCNCC4)n3)c2)cn1` and give its measured pIC50.
Reply | 6.00 to 7.00

Ask | And what about the molecule `Cn1cc(-c2cccc(C(=O)Nc3nc(CCCC(=O)NN4CCCC4)cn3-c3ccccc3)c2)cn1` ?
Reply | > 7.30

Ask | And what about the molecule Cn1cc(-c2cccc(-c3ncc(-c4cnn(C)c4)c(N4CC5CNCC5C4)n3)c2)cn1 (centres unmarked) ?
Reply | 6.00 to 7.00

Ask | And what about the molecule `Cc1cc(Nc2nc(O[C@H]3CCOC3)c3c(ccn3-c3cnn(C)c3)n2)sn1` ?
Reply | ≥ 7.00

Ask | And what about the molecule `CC(C)(O)[C@H](F)CNC(=O)c1cnc2ccc(-c3cn[nH]c3)cc2c1NC1COC1` ?
Reply | 8.01

Ask | And what about the molecule CC(=O)N[C@@H]1CCC[C@@H]1CNc1nc(-c2cccc(-c3cnn(C)c3)c2)ncc1-c1cnn(C)c1 (relative stereo) ?
Reply | 6.00 to 7.00

Ask | And what about the molecule `Clc1ccc2ncnc(N[C@H]3CC[C@H](N4CCC5(CC4)CC5)CC3)c2c1` ?
Reply | ≥ 5.30

Ask | And what about the molecule `CN(CC(=O)N1CCCC1)[C@H]1CC[C@H](Nc2ncnc3sc4ccccc4c23)CC1` ?
Reply | ≥ 7.00

Ask | And what about the molecule `O=C(CCCc1cn(-c2ccccc2)c(NC(=O)c2cccc(-c3ccncc3)c2)n1)NC1CC1` ?
Reply | > 7.30

Ask | And what about the molecule Cc1cccc(-n2ncc3ccc(-c4csc(C(C)N)n4)cc32)n1 (centres unmarked) ?
Reply | > 7.00

Ask | And what about the molecule `Cc1cccc(-n2ncc3ccc(-c4cn(C)cn4)cc32)n1` ?
Reply | 6.00 to 7.00

###

// compounds with pIC50 on IRAK4 (Homo sapiens (Human)), multi-source literature
pIC50: −log10 of the molar value.

Ask | Consider the compound O=C1CCC(N2C(=O)c3ccc(OCCOCCN4CCN(Cc5ccc6c(c5)nc(NC(=O)c5cccc(C(F)(F)F)c5)n6[C@H]5CC[C@@H](CO)CC5)CC4)cc3C2=O)C(=O)N1 (stereo partly drawn) and give its measured pIC50.
Reply | > 7.52

Ask | And what about the compound `Cn1cc(-n2ccc3nc(Nc4cc(C(=O)N5CCCCC5)cs4)nc(O[C@H]4CCOC4)c32)cn1` ?
Reply | ≥ 7.00

Ask | And what about the compound `Cc1cc(Nc2nc(O[C@H]3CC[C@@H](N)C3)c3sccc3n2)sn1` ?
Reply | 6.00 to 7.00

Ask | And what about the compound `CCC[C@H](N)c1cccc(-c2cc([C@@H]3CCCN3)c3cnn(-c4cccc(CO)n4)c3c2)n1` ?
Reply | > 7.00

Ask | And what about the compound `CNC(=O)CCCc1cn(-c2ccccc2)c(NC(=O)c2cccc(-c3cnn(C)c3)c2)n1` ?
Reply | > 7.30

Ask | And what about the compound `Cn1cc(-n2ccc3nc(Nc4cc(C(=O)NC5CCCCC5)cs4)nc(O[C@H]4CCOC4)c32)cn1` ?
Reply | 6.00 to 7.00

Ask | And what about the compound `C=CC(=O)N1CCC[C@@H](C(=O)Nc2ccc(NC(=O)c3cccc(-c4cnoc4)n3)nc2)C1` ?
Reply | 5.48

Ask | And what about the compound `Cc1cc(Nc2nc(OC3CCCCC3)c3c(ccn3-c3cnn(C)c3)n2)sn1` ?
Reply | ≥ 7.00

Ask | And what about the compound `CNC(=O)CCCc1cn(-c2ccccc2)c(NC(=O)c2cccc(-c3cn[nH]c3)c2)n1` ?
Reply | > 7.30

Ask | And what about the compound Cn1cc(NC(=O)c2cnn3ccc(NCC4CNC(=O)C4)nc23)c(C(N)=O)n1 (stereo not drawn) ?
Reply | 6.57

Ask | And what about the compound CC(C)Oc1nc2nc([C@H]3CCCOC3)cn2cc1C(=O)Nc1cccn(C2CC2)c1=O (single isomer, unassigned) ?
Reply | 9.52

Ask | And what about the compound `CC(=O)N1CCc2sc3ncnc(O[C@H]4CC[C@H](N5CCOCC5)CC4)c3c2C1` ?
Reply | 4.70 to 5.30

Ask | And what about the compound `CC(=O)N1CC[C@H](c2cc(-c3cnc(-n4ncc5cc(C#N)cnc54)cc3NC(C)C)on2)C1` ?
Reply | 8.40

Ask | And what about the compound `Cc1cc(Nc2cc(N[C@@H]3C[C@H](C(C)(C)O)[C@@H](O)[C@H]3O)c(-c3nc4ccccc4s3)cn2)cc(C)n1` ?
Reply | 8.22

Ask | And what about the compound `CC12CC(c3cn4cc(C(=O)Nc5cccn([C@H]6C[C@H]6F)c5=O)c(OC5CC5)cc4n3)(CO1)C2` ?
Reply | 9.70

Ask | And what about the compound `Cc1cccc(-n2ncc3ccc(-c4cccc(C5(C(N)=O)CCC5)n4)cc32)n1` ?
Reply | > 7.00

Ask | And what about the compound `CCc1nc2c(N[C@H]3CC[C@H](N4CCOCC4)CC3)nc(Nc3cnn(CCO)c3)nc2s1` ?
Reply | ≥ 6.00

Ask | And what about the compound `Oc1cc(-c2ccc3ncnc(N[C@H]4CC[C@H](N5CCOCC5)CC4)c3c2)cnc1F` ?
Reply | > 9.30
